Listed molecules paired with reported IC50
EXPERIMENTAL_TARGET: proteasome caspase-like (Casp-L) sites in NCI-H929 and RPMI-8226 multiple myeloma cells (Homo sapiens, UniProt P28072)
Sequence (P28072 whole entry): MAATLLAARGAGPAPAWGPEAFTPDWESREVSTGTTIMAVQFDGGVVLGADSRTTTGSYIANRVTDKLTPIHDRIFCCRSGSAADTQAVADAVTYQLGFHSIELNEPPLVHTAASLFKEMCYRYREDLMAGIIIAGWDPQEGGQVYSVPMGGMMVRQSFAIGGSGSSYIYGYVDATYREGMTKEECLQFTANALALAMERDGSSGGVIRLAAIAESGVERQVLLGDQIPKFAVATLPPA
MEASUREMENT_LABEL: IC50

Cc1c(O)cccc1C(=O)N[C@H](C(=O)N[C@@H](CO)C(=O)N[C@H](/C=C/S(C)(=O)=O)Cc1ccc(CN)cc1)C(C)C [compound 8] | > 30 µM
Cc1c(O)cccc1C(=O)N[C@H](C(=O)N[C@@H](CO)C(=O)N[C@@H](CCCNC(=N)N)C(=O)[C@@]1(C)CO1)C(C)C [compound 3] | > 30 µM

---

System: proteasome trypsin-like (Tr-L) sites in NCI-H929 and RPMI-8226 multiple myeloma cells
Assay type: cell-based
RECORDED_CONDITIONS: read-out: IC50 Tr-L, RPMI-8226; RPMI-8226 cells, 6 h treatment, ProteasomeGlo
pIC50: −log10 of the molar value.
MEASUREMENT_LABEL: pIC50

Cc1c(O)cccc1C(=O)N[C@H](C(=O)N[C@@H](CO)C(=O)N[C@H](/C=C/S(C)(=O)=O)Cc1ccc(CN)cc1)C(C)C | 5.49

Ref: paper PMC3782865
